TARGET OF ASSAY: Carnitine O-palmitoyltransferase 1, muscle isoform (Homo sapiens, UniProt Q92523)
Sequence (Q92523 whole entry, canonical isoform): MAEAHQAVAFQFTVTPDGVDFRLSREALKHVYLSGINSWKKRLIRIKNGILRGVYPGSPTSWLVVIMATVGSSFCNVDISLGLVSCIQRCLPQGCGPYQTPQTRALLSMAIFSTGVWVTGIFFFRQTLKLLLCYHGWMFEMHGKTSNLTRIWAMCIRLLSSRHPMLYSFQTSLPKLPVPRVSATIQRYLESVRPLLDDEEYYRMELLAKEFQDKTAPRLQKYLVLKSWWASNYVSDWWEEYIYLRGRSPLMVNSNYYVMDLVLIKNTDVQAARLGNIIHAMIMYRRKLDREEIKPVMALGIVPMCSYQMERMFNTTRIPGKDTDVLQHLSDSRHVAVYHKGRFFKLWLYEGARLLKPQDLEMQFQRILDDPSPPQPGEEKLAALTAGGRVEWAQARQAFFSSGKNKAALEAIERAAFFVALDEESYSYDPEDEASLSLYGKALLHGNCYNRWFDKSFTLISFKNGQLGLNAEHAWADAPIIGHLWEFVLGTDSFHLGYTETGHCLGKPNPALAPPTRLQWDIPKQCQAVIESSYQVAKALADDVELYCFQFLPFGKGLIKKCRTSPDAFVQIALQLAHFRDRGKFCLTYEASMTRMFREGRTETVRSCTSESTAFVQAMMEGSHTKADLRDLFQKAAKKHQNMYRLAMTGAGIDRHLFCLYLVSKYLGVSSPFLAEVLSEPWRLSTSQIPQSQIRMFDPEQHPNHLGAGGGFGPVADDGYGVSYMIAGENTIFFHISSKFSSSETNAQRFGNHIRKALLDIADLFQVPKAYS
PROTOCOL: SUPPLEMENTARY: Inhibition of Carnitine palmitoyltransferase 1, muscle isoform
PARAMETER MEASURED: pIC50
The quantity pIC50 is defined as the negative base-10 logarithm of the molar concentration.

# query: pIC50 | item O=C(Nc1ccc(C(=O)O)c(Cl)c1)c1ccc2c(c1)N(S(=O)(=O)c1cc(Cl)cc(Cl)c1)CC2 | system: Carnitine O-palmitoyltransferase 1, muscle isoform (Homo sapiens, UniProt Q92523)
5.42

// lookup pIC50 | system=Carnitine O-palmitoyltransferase 1, muscle isoform (Homo sapiens, UniProt Q92523) | key= O=C(COc1ccccc1)N1CCCC[C@@H]1c1noc(-c2ccc3[nH]cnc3c2)n1
4.48

Missing value: pIC50, Carnitine O-palmitoyltransferase 1, muscle isoform (Homo sapiens, UniProt Q92523), entry COc1ccc(Cl)cc1S(=O)(=O)N1COc2c(F)cc(C(=O)Nc3ccc(C(=O)O)cc3)cc21 . Fill in?
4.75

* * *

TARGET OF ASSAY: Carnitine O-palmitoyltransferase 1, liver isoform (Homo sapiens, UniProt P50416)
Sequence (P50416 whole entry, canonical isoform): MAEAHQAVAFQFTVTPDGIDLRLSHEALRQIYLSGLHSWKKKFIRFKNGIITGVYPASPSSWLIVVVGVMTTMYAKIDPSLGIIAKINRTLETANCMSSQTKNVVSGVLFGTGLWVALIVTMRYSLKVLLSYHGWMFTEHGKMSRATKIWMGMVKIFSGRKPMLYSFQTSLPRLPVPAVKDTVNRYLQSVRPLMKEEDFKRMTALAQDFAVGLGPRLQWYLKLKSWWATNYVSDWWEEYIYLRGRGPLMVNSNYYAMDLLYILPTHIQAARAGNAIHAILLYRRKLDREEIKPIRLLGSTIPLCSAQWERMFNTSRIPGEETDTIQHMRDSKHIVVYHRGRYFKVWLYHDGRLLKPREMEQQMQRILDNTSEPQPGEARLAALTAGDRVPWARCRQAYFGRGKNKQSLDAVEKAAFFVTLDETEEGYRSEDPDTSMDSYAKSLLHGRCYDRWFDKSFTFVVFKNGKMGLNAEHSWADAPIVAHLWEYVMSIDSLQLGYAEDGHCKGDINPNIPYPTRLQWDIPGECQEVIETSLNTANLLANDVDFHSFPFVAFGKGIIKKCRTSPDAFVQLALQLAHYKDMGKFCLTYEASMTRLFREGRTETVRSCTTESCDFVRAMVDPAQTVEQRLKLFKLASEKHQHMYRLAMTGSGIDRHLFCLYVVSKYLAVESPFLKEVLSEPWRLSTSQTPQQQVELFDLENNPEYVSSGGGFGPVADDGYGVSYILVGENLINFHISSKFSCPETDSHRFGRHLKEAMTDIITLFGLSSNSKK
PROTOCOL: SUPPLEMENTARY: Inhibition of Carnitine palmitoyltransferase 1, liver isoform
# class assignment by measured IC50: Low: < 100 nM; Medium: ≥ 100 nM and < 200 nM; High: ≥ 200 nM

CCCN(c1cc(C(=O)Nc2ccc(CC(=O)O)cc2)cc2c1OCO2)S(=O)(=O)c1cc(Cl)ccc1OC	Medium
COc1ccc(Cl)cc1CN1C(=O)COc2ccc(C(=O)Nc3nc(CC(=O)O)cs3)cc21	Medium
Cc1cc(-c2noc([C@H]3CCCCN3C(=O)COc3ccccc3)n2)n(C)n1	Medium
Cc1cc(C)cc(S(=O)(=O)c2n[nH]c3ccc(C(=O)Nc4ccccc4)cc23)c1	High
O=C([C@H]1CCCCN1C(=O)COc1ccccc1)N1Cc2ccc(Cl)cc2C1	High

// bin(item) where item = COC(=O)[C@H]1CCCC[C@@H]1c1nc([C@H]2CCCCN2C(=O)COc2ccccc2)no1
Medium

Which IC50 band matches O=C(COc1ccccc1)N1CCCC[C@@H]1c1nc(-c2cccs2)n[nH]1 ?
Medium

* * *

PROTOCOL: SUPPLEMENTARY: Lipophilicity (log D) Determination by high-throughput shake-flask
Format: physicochemical
DETAILS: octanol/water
PARAMETER MEASURED: logD
Enter a number only.

Would you mind telling me what logD value was observed for O=C(O)c1ccc(NC(=O)c2ccc3c(c2)N(S(=O)(=O)c2cccc(Cl)c2)CC[S+]3[O-])cc1 (stereo not drawn) ?
-0.14

What measured logD goes with O=C1CNc2ccc(-c3nc([C@H]4CCCCN4C(=O)COc4ccccc4)no3)cc2N1 ?
2.38

Which logD value belongs to COc1ccc(Cl)cc1CN1C(=O)C(C)(C)c2ccc(C(=O)Nc3ccc(C(=O)O)cc3)cc21 ?
1.83

Fill in the blank: the reported logD of O=C(c1nc([C@H]2CCCCN2C(=O)COc2ccccc2)no1)N1CCOCC1 is ____.
1.47

* * *

TARGET OF ASSAY: Carnitine O-palmitoyltransferase 1, liver isoform (Rattus norvegicus)
Sequence (P32198 whole entry, canonical isoform): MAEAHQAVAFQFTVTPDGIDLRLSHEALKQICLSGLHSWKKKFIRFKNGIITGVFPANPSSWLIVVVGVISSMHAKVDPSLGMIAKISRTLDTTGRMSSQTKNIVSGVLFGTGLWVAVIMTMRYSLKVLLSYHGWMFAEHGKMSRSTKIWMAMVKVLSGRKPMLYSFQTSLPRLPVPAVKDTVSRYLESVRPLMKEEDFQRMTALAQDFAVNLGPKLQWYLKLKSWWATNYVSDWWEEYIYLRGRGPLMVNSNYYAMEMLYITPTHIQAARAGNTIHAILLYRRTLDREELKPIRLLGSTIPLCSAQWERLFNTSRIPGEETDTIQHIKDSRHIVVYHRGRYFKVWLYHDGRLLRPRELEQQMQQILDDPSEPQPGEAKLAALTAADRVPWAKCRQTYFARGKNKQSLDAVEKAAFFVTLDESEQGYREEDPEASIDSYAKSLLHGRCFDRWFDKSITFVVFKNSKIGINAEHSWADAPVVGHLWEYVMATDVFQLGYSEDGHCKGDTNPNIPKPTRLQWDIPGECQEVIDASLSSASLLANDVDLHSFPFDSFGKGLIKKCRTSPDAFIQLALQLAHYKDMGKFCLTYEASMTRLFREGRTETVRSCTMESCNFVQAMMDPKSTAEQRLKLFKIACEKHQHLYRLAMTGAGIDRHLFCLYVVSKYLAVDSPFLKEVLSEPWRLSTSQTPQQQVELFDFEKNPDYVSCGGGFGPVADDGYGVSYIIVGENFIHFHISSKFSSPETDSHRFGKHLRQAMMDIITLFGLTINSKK
PROTOCOL: SUPPLEMENTARY: Inhibition of Carnitine palmitoyltransferase 1, liver isoform
PARAMETER MEASURED: log10 IC50 (log10 of the value in nM)
Heads up, the numbers here are log10 of IC50 in nM units.

A selection of reference data follows.
Cc1cc(-c2nc([C@H]3CCCCN3C(=O)COc3ccccc3)no2)[nH]n1	2.16
COc1ccc(Cl)cc1S(=O)(=O)N1C[C@H](C)c2ccc(C(=O)Nc3ccc(C(=O)O)cc3)cc21	1.90
COc1ccc(Cl)cc1S(=O)(=O)N1CC(C(=O)O)Oc2ccc(C(=O)Nc3ccccc3F)cc21 (centres undefined)	2.23
COc1ccc(Cl)cc1S(=O)(=O)N1CCOc2c(Cl)cc(C(=O)Nc3ccc(C(=O)O)cc3)cc21	1.69
COc1ccc(Cl)cc1S(=O)(=O)N1CC(C(=O)O)Oc2ccc(C(=O)Nc3ccc(F)cc3)cc21 (centres undefined)	2.12

What measured log10 IC50 is associated with CC(=O)Nc1ccc(-c2noc([C@H]3CCCCN3C(=O)C#Cc3ccccc3)n2)cc1C(F)(F)F on Carnitine O-palmitoyltransferase 1, liver isoform (Rattus norvegicus)?
3.90
